# TGI listing for each entry below
tested on: PC-3 prostate; test: NCI tumour cell line growth inhibition, 48 h
observation-type: TGI

>>> print(df.to_string())
                                    compound  observation_type  observed_result
 0  COc1cc2nc(-c3c(F)cccc3F)n(Cc3c(F)cccc3F)c2cc1Cc1c(F)cccc1F               TGI         > 100 µM
 1  Oc1c(Br)cc(CN(Cc2cc(Br)c(O)c(Br)c2)C2CCCCC2)cc1Br               TGI         > 100 µM
 2  CS(=O)(=O)Nc1ccc(-c2ccc3c(NC(=O)C4CC4)n[nH]c3c2)cc1               TGI          > 25 µM
 3  CCOC1NC(=O)c2ccccc21 (stereo unspecified)               TGI         > 100 µM
 4  CC(=O)n1c(-c2ccc(Cl)cc2)nc2c(c1=O)C(c1ccc(Cl)cc1)c1sc3c(Cl)cccc3c1O2 (stereo unspecified)               TGI          2.69 µM
 5  CCOC(=O)c1ccc(C(=O)/C(C(=O)OC(C)(C)C)=C2\CCCN2C)n1C               TGI         > 100 µM
 6  COc1cc2c3c(n(CCCN4CCC(N)CC4)c(=O)c2cc1OC)-c1cc2c(cc1C3=O)OCO2               TGI          2.11 µM
 7          Nc1ccc(SC23CC4CC(CC(C4)C2)C3)cc1               TGI         > 100 µM
 8                    CC1=NC(C)(C)N(O)C1(C)C               TGI         > 100 µM
 9  Cc1noc(C)c1-c1ccc2[nH]c(=O)n3c2c1OC[C@@H]3c1ccccn1               TGI         > 100 µM
10  CCCCCC(=O)Oc1ccc(/C(=C(\C)c2ccc(OC)cc2)c2ccc(OCCN3CCCCC3)cc2)cc1               TGI          18.7 µM
